# experimental.system: Cytochrome P450 2C19 (Homo sapiens)
# test.protocol: Cytochrome panel assay with activity outcomes
# measurement.parameters: recombinant CYP, pro-luciferin dealkylation, luminescence, p450-cyp2c19; series mostly up to 57.1 µM
In all, about 16,000 compounds went through this assay and about 5,800 (36%) were called active. About 23% were inconclusive and are not listed. Some of the results follow.
property: AC50

CN(C)C(=O)c1ccc(-c2nc(Nc3ccc(F)cc3)c3ccccc3n2)cc1 ... 31.6 µM (active)
CCN(CC)c1ccc(C(=O)OCc2cc(=O)oc3cc(O)ccc23)cc1 ... 0.355 µM (active)
O=C(Oc1ccc2ccccc2c1Br)N1CCCCCC1 ... 1.78 µM (active)
CCOC(=O)c1cc(-c2ccc(Cl)cc2)nc2c1c(C)nn2CCC#N ... 14.1 µM (active)
N[C@H](C(=O)O)[C@@H]1[C@@H](C(=O)O)C1(F)F ... inactive
Cc1ccccc1Oc1ncnc2oc(-c3ccccc3)cc12 ... 3.98 µM (active)
O=C(Nc1ccc2c(c1)OCCO2)c1cc2sccc2n1Cc1ccc(F)cc1 ... 1 µM (active)
CCOc1cc(/C=C2/NC(=O)N(CC(=O)Nc3cccc(C)c3)C2=O)ccc1OC ... inactive

Would you mind giving AC50 for every compound in the list below?
1. Cc1nc(C(=O)Nc2cccc(Cl)c2Cl)nn1-c1cc(OC(C)C)c(Cl)cc1Cl
2. O=C(CSc1nnnn1C1CCCC1)Nc1ccc(F)cc1
3. O=C(c1ccccc1)c1ccc(OCCn2cnc3ccccc3c2=O)cc1
4. CC(C)OC(=O)CN1CCN(C2c3ccccc3-c3ccccc32)CC1
5. COc1ccc(CCNC(=O)Cn2c(=O)oc3ccccc32)cc1OC

Solution:
1. 7.08 µM (active)
2. 2 µM (active)
3. 1.58 µM (active)
4. 7.08 µM (active)
5. inactive

Provide each entry's AC50 from the list below.
1. CN(C)C(=O)c1ccc(-c2nc(NCc3cccs3)c3ccccc3n2)cc1
2. COc1ccc2[nH]c(C(=O)c3ccccc3)cc2c1
3. c1ccc2nc(C3=NCCN3)cnc2c1
4. COc1cccc(Nc2ncc3nc(-c4cn(C)c5ccccc45)c(=O)n(CCC#N)c3n2)c1
5. O=C(N/N=C/c1cccc(Oc2ccccc2)c1)c1cccc(Br)c1
6. CCCCNC(=O)CCC(=O)Nc1ccc2nc(N3CCOCC3)cc(C)c2c1

Solution:
["10 µM (active)", "inactive", "inactive", "inactive", "2.24 µM (active)", "25.1 µM (active)"]

Required: AC50, one value per compound below.
1. CCn1nc(C(=O)Nc2ccccc2C)c(Cl)c1Cl
2. CN(C)C(=O)c1ccc(-c2nc(Nc3ccccc3)c3ccccc3n2)cc1

Solution:
1: inactive; 2: 15.8 µM (active)

* * *

# experimental.system: Cytochrome P450 2C19 (Homo sapiens)
# test.protocol: Cytochrome panel assay with activity outcomes
# measurement.parameters: recombinant CYP, pro-luciferin dealkylation, luminescence, p450-cyp2c19; series mostly up to 57.1 µM
The campaign covered roughly 16,000 compounds. About 5,800 (36%) were called active. About 23% were inconclusive and are not listed. The call rests on the fitted dose curve; in most records, active means well fitted curve in the direction sought with a large enough effect; inconclusive means small, poorly fitted or top-dose-only effect, or effect the other way; inactive means no such curve, though single readings can be large or run the other way. This is one part of the list.
Outcomes you can answer with include only these: True for active, False for inactive

Cc1cc(C)n(CC(O)COc2ccccc2)n1 (stereo not drawn) ... True

Problem: For CCN(CC)CCNC(=O)c1ccc(Cl)c(S(=O)(=O)Nc2ccccc2OC)c1 , which call appears in the assay record?
Solution: False

Problem: Tell me the assay call for O=C(c1cnccn1)N1CCC2(CC1)CN(Cc1cc(C(F)(F)F)cc(C(F)(F)F)c1)C2 please.
Solution: False

The reported numbers originate from PubChem BioAssay AID1851.
